- methodNotes: Quantitative highthroughput screen to assess conditional lethalithy of SEM cells grown in RPMI1640 with unreated serum (RPMI+s) (AID 1963883); further: nearly all actives have a fitted effect of over 35% in size
- condition: SEM B-ALL cells, CellTiter-Glo viability, 48 h; series mostly up to 45.8 µM
Records with an inconclusive call do not appear. Calls of active or inactive are those of the source. The call rests on the fitted dose curve; in most records, active means well fitted cell-killing curve with a large enough effect; inconclusive means small, poorly fitted or top-dose-only effect, or effect the other way; inactive means no such curve, though single readings can be large or run the other way.
Please reply with one of these outcomes: True for active, False for inactive

# compound, className
rows = [
    ("CC(C)(O)CC(=O)NCCn1ccc2ncnc(Nc3ccc(Oc4cccc(C(F)(F)F)c4)c(Cl)c3)c21", "True"),
    ("CC1=C(C(=O)Nc2cc3cn[nH]c3cc2F)C(c2ccc(Cl)cc2F)N=C(c2ccnc(Cl)c2)N1 (stereo not given)", "True"),
]

Prompt: Hello, I am checking results. What call was entered for `CCCn1c(=O)c2[nH]c(-c3cnn(Cc4cccc(C(F)(F)F)c4)c3)nc2n(CC)c1=O` ?
Completion: False

Prompt: Hello, I am checking results. What call was entered for `Nc1nc(Cl)nc2c1ncn2[C@H]1C[C@H](O)[C@@H](CO)O1` ?
Completion: True

Prompt: Hello, I am checking results. What call was entered for CCCNC(=O)[C@H]1O[C@H]1C(=O)N[C@H](C(=O)N1CCC[C@@H]1C(=O)OC)C(C)CC (stereo not given in full) ?
Completion: True

Prompt: Hello, I am checking results. What call was entered for `COc1ccc2c(c1)CC[C@@H](CN(C)CC(=O)O)[C@H]2c1ccccc1` ?
Completion: True

----------
- methodNotes: Viability qHTS for spleen associated tyrosine kinase inhibitor (SYKi) naive MV4-11 cells (AID 1963823); further: nearly all actives have a fitted effect of over 40% in size; further: potency means the concentration at half of the fitted maximal effect
- condition: MV4-11 AML viability, CellTiter-Glo luminescence, 72 h; series mostly up to 45 µM
Records with an inconclusive call do not appear. Activity calls are given as the source filed them. The call rests on the fitted dose curve; in most records, active means well fitted cell-killing curve with a large enough effect; inconclusive means small, poorly fitted or top-dose-only effect, or effect the other way; inactive means no such curve, though single readings can be large or run the other way.
measureName: Potency

Below, each entry is followed by its recorded Potency result.
# molecule, Potency
records = [
    ("COc1cc(N2CCOCC2)ccc1Nc1ncc(F)c(Nc2ccccc2NS(C)(=O)=O)n1", "1.64 µM (active)"),
    ("c1ccc2sc(SN3CCOCC3)nc2c1", "inactive"),
    ("CN(Cc1ccc(C(C)(C)C)cc1)Cc1cccc2ccccc12", "inactive"),
    ("CC(C)CCCC(C)NCCC(C)C (stereo not given)", "inactive"),
    ("O=[N+]([O-])c1cncn1CCN1CCOCC1", "inactive"),
]

Prompt: Give Potency for the following molecule: `CCOc1ccc(-c2ccc(Cn3c(CC(C)(C)C(=O)O)c(SC(C)(C)C)c4cc(OCc5ccc(C)cn5)ccc43)cc2)cn1`
Completion: inactive

Prompt: Give Potency for the following molecule: `CN(c1ccccc1CNc1nc(Nc2ccc3c(c2)CC(=O)N3)ncc1C(F)(F)F)S(C)(=O)=O`
Completion: 0.291 µM (active)

Prompt: Give Potency for the following molecule: C=C1C(=O)O[C@@H]2[C@H]1CC[C@H](C)[C@]1(CCC(=O)O1)C2(C)O (stereo not given in full)
Completion: 16.4 µM (active)

Prompt: Give Potency for the following molecule: `C/C(=N\N=C(N)N)c1ccc(NC(=O)Nc2ccc(/C(C)=N/N=C(N)N)cc2)cc1`
Completion: 2.06 µM (active)

Prompt: Give Potency for the following molecule: `CCCCCCCCCCCCCCCCO`
Completion: inactive

Prompt: Give Potency for the following molecule: `Oc1cc(-c2nc(-c3ccccc3)[nH]c2-c2ccncc2)ccc1Cl`
Completion: 6.51 µM (active)

Prompt: Give Potency for the following molecule: `CNCc1ccc(-c2cc(-c3nc(-c4ccc(S(=O)(=O)C(C)C)cc4)cnc3N)on2)cc1`
Completion: 0.259 µM (active)

Prompt: Give Potency for the following molecule: O=C(OC[C@H]1O[C@@H](Oc2ccccc2COC(=O)C2(O)C=CCCC2O)[C@H](O)[C@@H](O)[C@@H]1O)c1ccccc1 (stereo not given in full)
Completion: inactive

Prompt: Give Potency for the following molecule: `C=CC(C)(C)O[C@@H]1O[C@H](CO[C@@H]2OC[C@](O)(CO)[C@H]2O)[C@@H](O)[C@H](O)[C@H]1O`
Completion: inactive

Prompt: Give Potency for the following molecule: CC1CCC2C(C(=O)O)=COC(O[C@@H]3O[C@H](CO)[C@@H](O)[C@H](O)[C@H]3O)C12 (stereo not given in full)
Completion: inactive

Prompt: Give Potency for the following molecule: `O=C(N/N=C/c1ccccc1O)c1ccncc1`
Completion: 0.944 µM (active)

Prompt: Give Potency for the following molecule: `CC(=O)c1c(C)cc(O)cc1O[C@@H]1O[C@H](CO)[C@@H](O)[C@H](O)[C@H]1O`
Completion: inactive

Prompt: Give Potency for the following molecule: `C[C@H](Nc1ncnc2nc[nH]c12)c1cc2cccc(Cl)c2c(=O)n1-c1ccccc1`
Completion: 11.8 µM (active)

Prompt: Give Potency for the following molecule: `COc1nc(C)nc(Cl)c1NC1=NCCN1`
Completion: inactive

Prompt: Give Potency for the following molecule: `CS(=O)(=O)c1cccc(CNc2nc(Nc3ccc4c(c3)CCC(=O)N4)ncc2C(F)(F)F)c1`
Completion: 0.105 µM (active)
